- Tested on: Key Broadleaf Weed and Crop Species
- ASSAY_NOTES: Post-Emergent Test II: postemergent herbicidal activity, visual rating after 14 d (Table 7)
- Type: in vivo
- SETUP_CONDITIONS: post-emergence, 336 h, redroot pigweed (Amaranthus retroflexus), 35 g ai/ha, read-out: Visual Growth Reduction (%) 14 Days After Application AMARE
PROPERTY_NAME: pest or weed control at 35 g/ha

molecule=Nc1c(F)c(-c2cccc3c2OC(F)(F)O3)nc(C(=O)O)c1Cl target_desc="Key Broadleaf Weed and Crop Species" value_reported="95 to 100%"
molecule=COC(=O)c1nc(-c2cc3c(cc2Cl)OC(F)(F)O3)c(F)c(N)c1Cl target_desc="Key Broadleaf Weed and Crop Species" value_reported="0 to 29%"
molecule=Nc1c(Cl)c(C(=O)O)nc(-c2ccc3c(c2F)OC(F)(F)O3)c1Cl target_desc="Key Broadleaf Weed and Crop Species" value_reported="0 to 29%"
molecule=COC(=O)c1nc(-c2ccc3c(c2F)OC(F)(F)O3)c(Cl)c(N)c1Cl target_desc="Key Broadleaf Weed and Crop Species" value_reported="0 to 29%"
molecule=COC(=O)c1nc(-c2ccc3c(c2)OC(C)(C)O3)nc(N)c1OC target_desc="Key Broadleaf Weed and Crop Species" value_reported="0 to 29%"
molecule=COC(=O)c1nc(-c2cc3c(cc2F)OC(F)(F)O3)c(F)c(N)c1Cl target_desc="Key Broadleaf Weed and Crop Species" value_reported="0 to 29%"
molecule=COc1c(N)nc(-c2ccc3c(c2F)OC(F)(F)O3)nc1C(=O)O target_desc="Key Broadleaf Weed and Crop Species" value_reported="95 to 100%"
molecule=Cc1c(-c2ccc3c(c2)OC(F)(F)O3)nc(C(=O)O)c(Cl)c1N target_desc="Key Broadleaf Weed and Crop Species" value_reported="0 to 29%"
molecule=COC(=O)c1nc(-c2c(F)cc3c(c2F)OCO3)cc(N)c1Cl target_desc="Key Broadleaf Weed and Crop Species" value_reported="85 to 94%"
molecule=COC(=O)c1nc(-c2cc3c(cc2F)OC(F)(F)O3)c(F)c(N)c1OC target_desc="Key Broadleaf Weed and Crop Species" value_reported="0 to 29%"
molecule=Nc1c(Cl)c(C(=O)O)nc(-c2cc3c(cc2F)OC(F)(F)O3)c1Cl target_desc="Key Broadleaf Weed and Crop Species" value_reported="0 to 29%"
molecule=Nc1c(F)c(-c2ccc(Cl)c3c2OC(F)(F)O3)nc(C(=O)O)c1Cl target_desc="Key Broadleaf Weed and Crop Species" value_reported="95 to 100%"
molecule=COC(=O)c1nc(-c2ccc3c(c2C)OC(F)(F)O3)cc(N)c1Cl target_desc="Key Broadleaf Weed and Crop Species" value_reported="85 to 94%"
molecule=Nc1c(F)c(-c2ccc3c(c2)OC(F)(F)O3)nc(C(=O)O)c1Cl target_desc="Key Broadleaf Weed and Crop Species" value_reported="75 to 84%"
molecule=COC(=O)c1nc(-c2ccc3c(c2)OC(C)(C)O3)c(F)c(N)c1Cl target_desc="Key Broadleaf Weed and Crop Species" value_reported="0 to 29%"
molecule=Nc1nc(-c2ccc3c(c2)OC(F)(F)O3)nc(C(=O)O)c1Cl target_desc="Key Broadleaf Weed and Crop Species" value_reported="0 to 29%"
molecule=COC(=O)c1nc(-c2cc3c(cc2F)OC(F)(F)O3)nc(N)c1Cl target_desc="Key Broadleaf Weed and Crop Species" value_reported="0 to 29%"
molecule="COC(=O)c1nc(-c2ccc3c(c2)OC(C)O3)c(F)c(N)c1Cl (stereo not drawn)" target_desc="Key Broadleaf Weed and Crop Species" value_reported="60 to 74%"
